# target_or_system: T1, Recombinant human Dkk-1 (R&D Systems cat no. 1096-DK/CF), 10xHis tag at the C terminal (human, UniProt O94907 32-266)
# T1 construct: the actual N-terminus of the purified protein is marked in bold italic after residue 30, but the mark is an image lost in the text; also called rhuDkk-1; hDkk-1
# T1 sequence: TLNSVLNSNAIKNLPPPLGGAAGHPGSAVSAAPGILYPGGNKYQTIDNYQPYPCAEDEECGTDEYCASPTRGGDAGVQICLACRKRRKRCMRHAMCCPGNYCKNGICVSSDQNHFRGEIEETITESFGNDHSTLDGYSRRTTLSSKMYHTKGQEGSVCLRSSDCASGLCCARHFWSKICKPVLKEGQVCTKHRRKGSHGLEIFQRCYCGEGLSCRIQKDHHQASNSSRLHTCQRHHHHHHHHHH
# assay_explanation: SPR screening 37C (BIAcore/ProteOn), Fab lysate over biotinylated human Dkk-1
Form field: koff (one value per entry).
Report only the number, with the unit s⁻¹ understood.

Some solved cases for reference:
What does the data say about its koff? Entry: L3.4E6 (Fab, V domains shown, tested as Fab (E. coli lysate, screening mode); human kappa CL and IgG2 CH1 not included here) VH: EVQLVESGGGLVQPGGSLRLSCAASGFTFSSYAISWVRQAPGKGLEWVASVSGGLGTYYPDSVKGRFTISRDNAKNSLYLQMNSLRAEDTAVYYCATSLRNYAFDYWGQGTTVTVSS VL: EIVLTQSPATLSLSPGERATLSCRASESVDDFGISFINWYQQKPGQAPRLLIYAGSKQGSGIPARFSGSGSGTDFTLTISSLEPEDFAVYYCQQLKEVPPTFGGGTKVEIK
0.00099

What about L2.P4.B5 (Fab, V domains shown, tested as Fab (E. coli lysate, screening mode); human kappa CL and IgG2 CH1 not included here) VH: EVQLVESGGGLVQPGGSLRLSCAASGFTFSSYAISWVRQAPGKGLEWVASVSGWGDTYYPDSVKGRFTISRDNAKNSLYLQMNSLRAEDTAVYYCATSYENYAFDYWGQGTTVTVSS VL: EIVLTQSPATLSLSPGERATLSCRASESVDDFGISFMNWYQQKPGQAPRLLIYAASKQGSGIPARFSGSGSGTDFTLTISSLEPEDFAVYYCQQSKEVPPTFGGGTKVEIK ?
0.00532

Consider the record given below.
What does the data say about its koff? Entry: L3.4H2 (Fab, V domains shown, tested as Fab (E. coli lysate, screening mode); human kappa CL and IgG2 CH1 not included here; printed changes identical to L3.4E7) VH: EVQLVESGGGLVQPGGSLRLSCAASGFTFSSYAISWVRQAPGKGLEWVASVSGWGDTYYPDSVKGRFTISRDNAKNSLYLQMNSLRAEDTAVYYCATSLQNYAFDYWGQGTTVTVSS VL: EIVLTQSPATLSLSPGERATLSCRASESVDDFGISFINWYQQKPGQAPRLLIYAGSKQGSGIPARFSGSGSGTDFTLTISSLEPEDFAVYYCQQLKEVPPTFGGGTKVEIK
4.8e-05

src = patent US20130071921A1
